TEST SYSTEM: Rad52 (Saccharomyces cerevisiae, UniProt P06778 1-471)
Sequence (P06778 whole entry): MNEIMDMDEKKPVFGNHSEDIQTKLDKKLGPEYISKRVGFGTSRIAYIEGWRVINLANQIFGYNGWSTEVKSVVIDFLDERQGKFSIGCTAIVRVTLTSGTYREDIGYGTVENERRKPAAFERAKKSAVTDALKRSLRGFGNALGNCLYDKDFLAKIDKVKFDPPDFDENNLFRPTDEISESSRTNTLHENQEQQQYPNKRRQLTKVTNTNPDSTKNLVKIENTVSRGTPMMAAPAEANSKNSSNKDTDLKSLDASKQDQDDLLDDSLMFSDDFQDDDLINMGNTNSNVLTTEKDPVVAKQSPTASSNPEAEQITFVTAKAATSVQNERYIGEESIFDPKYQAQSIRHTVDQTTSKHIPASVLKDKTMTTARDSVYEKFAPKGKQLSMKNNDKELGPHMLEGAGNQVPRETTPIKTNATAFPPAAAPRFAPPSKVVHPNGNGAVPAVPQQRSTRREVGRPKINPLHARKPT
ASSAY NOTES: tryptophan quenching; high affinity site, two-site sequential model; Anisotropy/FRET: 50 mM Tris-acetate pH 7.5, 50 mM KCl, 5 mM MgCl2, 10% glycerol, 1 mM DTT, 0.2 mg/mL BSA, 23 C; stopped flow: 50 mM Tris-acetate pH 7.5, 5 mM Mg
RUN PARAMETERS: protein: recombinant; chain copies: 10; single strand

{"BINDER": "(dT)84 (ssDNA) DNA: TTTTTTTTTTTTTTTTTTTTTTTTTTTTTTTTTTTTTTTTTTTTTTTTTTTTTTTTTTTTTTTTTTTTTTTTTTTTTTTTTTTT", "VALUE UNITS": "pM", "Kd": 1.3}

Data origin, for the record: paper PMC10556141
